Taken from PubChem BioAssay (EPA / NIEHS).

# Test protocol: ATG_M_32_CIS: Attagene CIS-FACTORIAL HepG2 Assay for M32 Transcription Factor (Internal Marker) (AID 2282949);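 also: background control marker of the multiplexed CIS panel rather than a real target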
# Conditions used: HepG2 Attagene cis-factorial M32 reporter, mRNA; actives raise or lower the signal
The source made the active and inactive calls. The calls were made as follows: active = hit-call score of the fitted dose curve at least 0.9, where 1 is the maximum; inactive = score below 0.9.
Hello, when you answer, please use one of the following outcomes: true (active), false (inactive)

Solved entries (count: 3):
{"Compound": "O=C(F)C(F)(F)C(F)(F)C(F)(F)C(F)F", "Discrete label": "false"}
{"Compound": "CCCCCCCCC1CCC(=O)O1 (centres undefined)", "Discrete label": "false"}
{"Compound": "O=C(CCCN1CCC(O)(c2ccc(Cl)cc2)CC1)c1ccc(F)cc1", "Discrete label": "true"}

# ---- query compound ----
GET /call?item= "O=C(O)C(F)(F)OC(F)(F)C(F)(F)OC(F)(F)C(F)(F)OC(F)(F)C(F)(F)C(F)(F)C(F)(F)F" returns the recorded outcome of this test.
false
